This collection of values is drawn from PubChem BioAssay (NCI).

- Test system: MCF7 breast
- procedure-text: NCI-60 one-dose screen, 48 h (100 = growth as untreated, 0 = no growth, -100 = all killed)
- assay-context: 10 µM unless noted
This is part of a sample that, as a whole, favours compounds with a hit. Of some 83,000 tested, about 20% had one in any assay.
Assignment: determine reported growth for the given molecules.
Numbers only, in %.

c1ccc2c(c1)O[As](O[As]1Oc3ccccc3O1)O2: 12.7

Below are some molecules; for each one, tell me its growth.
1. CC12CCC3C(CCC4CC(O)CCC43C)C1CCC2=O (stereo unspecified)
2. Nc1ccc2c(c1)Cc1cc(N)ccc1-2
3. O=C(NC1=NCC[Se]1)c1ccccc1O
4. C[C@]12CCc3sc(Nc4ccc(OC(F)(F)F)cc4)nc3C1=CC[C@@H]1[C@@H]2CC[C@]2(C)C(=O)CC[C@@H]12
5. N#CCc1ccc(CC#N)cc1

Result:
1: 116; 2: 59.9; 3: 51.4; 4: 17.1; 5: 91.4

====

- Test system: SF-295 CNS
- procedure-text: NCI-60 one-dose screen, 48 h
- assay-context: 10 µM unless noted
- Method: Cells are grown in 96 well plates and exposed to the test compound for 48 hours. Compounds are tested at a single concentration, which is 10^-5 M for most compounds. The reported endpoint is percent growth (GI% or GIPRCNT), where numbers from 0 - 100% represent growth inhibition, and numbers from -100% - 0 represent cell death. For example, a value of 40 represents 60% growth inhibition. A value of 0 means no net growth occurred over the course of the experiment. […]
About 83,000 compounds went through this panel and 20% of them were active in at least one assay; those are over-represented in the sample as a whole. Active and inactive are the calls of the source. The calls were made as follows: active = growth percent below 10; inactive = the rest.
// classify into 1 (active), 0 (inactive)

Please review the following examples before continuing.
C[C@@H]1C/C=C\C(=O)O[C@H](/C=C/C#C/C=C/C(C)(C)[C@@H](O)c2cccc(O)c2Br)[C@@H](C)/C=C/[C@H](C)C[C@H](OC(N)=O)C1: 1
CC(Oc1ccc(-c2ccccc2)cc1)C(=O)O (stereo not given): 0
CC[PH+](CC)CC.O=COC1OC([S-])C(OC=O)C(OC=O)C1OC=O.[Au+] (stereo not given): 1
CCC1CCC(=O)O1 (stereo not given): 0
CC[C@H](C)[C@H](NC(=O)c1cnccn1)C(=O)N(C)[C@H](C[C@@H](OC(C)=O)c1nc(C(=O)N[C@@H](Cc2ccccc2)C[C@H](C)C(=O)OC)cs1)C(C)C: 1
COc1ccc2c(c1)c(-c1nc(-c3cn(C)c4ncccc34)cs1)cn2CCCCN1CCOCC1: 1
CCCC[C@H]1C(=O)O[C@H](C)[C@H](NC(=O)c2cccc(NC=O)c2O)C(=O)O[C@@H](C)[C@@H]1OC(=O)CC(C)C: 1
CCN1C(=O)NC(=O)C(C)(N2C(=O)c3c(F)c(F)c(F)c(F)c3C2=O)C1=O (stereo not given): 0
Oc1cc(Cl)ccc1Oc1ccc(Cl)cc1Cl: 1

Request: // return assay outcome for `C(=NC1CCCCC1)=NC1CCCCC1`
Result: 0

====

- System: OVCAR-4 ovarian
- procedure-text: NCI-60 one-dose screen, 48 h (100 = growth as untreated, 0 = no growth, -100 = all killed)
- assay-context: 10 µM unless noted
- Experimental: Growth inhibition of the OVCAR-4 human tumor cell line is measured as a screen for anti-cancer activity. Cells are grown in 96 well plates and exposed to the test compound for 48 hours. Compounds are tested at a single concentration, which is 10^-5 M for most compounds. The reported endpoint is percent growth (GI% or GIPRCNT), where numbers from 0 - 100% represent growth inhibition, and numbers from -100% - 0 represent cell death. For example, a value of 40 represents 60% growth inhibition. […]
The panel holds about 83,000 compounds, 20% with a hit somewhere; the sample as a whole holds those more often.
Given measured growth, output yes (1) if it is greater than or equal to 90% and no (0) if not.

Please review the following examples before continuing.
CC[PH+](CC)CC.O=COC1OC([S-])C(OC=O)C(OC=O)C1OC=O.[Au+] (stereo not drawn): no (0)
C[C@]12CCC3[C@@H](C[C@@H]4SC(Nc5ccccc5)=N[C@@]45CC(=O)CC[C@]35C)[C@@H]1CCC2=O (stereo partly drawn): no (0)
C/C=C(/C)C(=O)O[C@H]1CC[C@@]2(C)[C@@H]3CC[C@H]4[C@]5(O)C[C@H](O)[C@@]6(O)[C@@H](CN7C[C@@H](C)CC[C@H]7[C@@]6(C)O)[C@]5(O)C[C@@]42O[C@@]13O: yes (1)

Request: Kindly determine if growth recorded for `CC[C@H](C)[C@H](NC(=O)CN(C)C)C(=O)N(C)[C@H](C[C@@H](OC(C)=O)c1nc(C(=O)NC23CC(C(=O)OC)(C2)C3)cs1)C(C)C` is above or exactly 90%.
Result: no (0)

====

- Tested on: SK-MEL-2 melanoma
- procedure-text: NCI-60 one-dose screen, 48 h
- assay-context: 10 µM unless noted
This is part of a sample that, as a whole, favours compounds with a hit. Of some 83,000 tested, about 20% had one in any assay. The source made the active and inactive calls. How the source made its calls: active means growth percent below 10; inactive means the rest.
// classify into active, inactive

C#COc1cccc(Nc2ncnc3cc(NC(=O)CF)ccc23)c1: inactive
Cc1cc(Br)c([N+](=O)[O-])cc1[N+](=O)[O-]: inactive
CC1OC(=O)C(C(C)C)NC(=O)C(C(C)C)OC(=O)C(C(C)C)NC(=O)C(C)OC(=O)C(C(C)C)NC(=O)C(C(C)C)OC(=O)C(C(C)C)NC(=O)C(C)OC(=O)C(C(C)C)NC(=O)C(C(C)C)OC(=O)C(C(C)C)NC1=O (centres undefined): active

Here is the next item to consider.
Request: // return assay outcome for `CCOC(=O)c1ccccc1C(=O)OCC`
Result: inactive

====

- System: SW-620 colon
- procedure-text: NCI-60 one-dose screen, 48 h (100 = growth as untreated, 0 = no growth, -100 = all killed)
- assay-context: 10 µM unless noted
Compounds without any hit were thinned out: in the full panel of roughly 83,000, 20% have a hit.
Assignment: determine reported growth for the given molecules.
Answers are plain numbers, in %.

C[C@]12CC[C@H]3[C@@H](CC=C4c5nc(N)sc5CC[C@@]43C)[C@@H]1CC[C@@H]2O: 90.1
O=C1CCCCC1CN1CCCCC1 (stereo not drawn): 101
COc1ccc2c(c1)c(-c1nc(-c3c[nH]c4ncccc34)cs1)cn2CCCCN1CCOCC1: -63
N#CC(NC(=O)CCl)=C(Cl)Cl: -50.1
CC[C@H](C)[C@H](NC(=O)CN(C)C)C(=O)N(C)[C@H](C[C@@H](OC(C)=O)c1nc(C(=O)NC23C4C5C2C2C3C4C52C(=O)OC)cs1)C(C)C (stereo partly drawn): 25.9

Below are some molecules; for each one, tell me its growth.
1. COc1ccc(C(C#N)C(C)=O)cc1 (stereo not drawn)
2. C[N+]1(CC#CC[N+]2(C)CCCC2)CCCC1
3. OCCNC1CCCCC1
4. O=[N+]([O-])c1cc(Br)c(O)c(Br)c1
5. COc1ccc2c(c1)C1(C)CCN(C)CC(C1)C2O (stereo not drawn)
6. N#Cc1ccc(Cl)cc1
7. O=Cc1cn(Cc2ccccc2)c2ccccc12

Result:
1: 104; 2: 107; 3: 108; 4: 108; 5: 101; 6: 103; 7: 92.4

Below are some molecules; for each one, tell me its growth.
1. COC(=O)CCP(CCC(=O)OC)c1ccccc1
2. C[C@]12CC[C@H](O)C[C@@H]1CC[C@@H]1[C@@H]2CC[C@]2(C)OC(=O)CC[C@@H]12
3. CCC1(NC(=O)c2cc(F)c(F)c(F)c2F)C(=O)NC(=O)N(C(C)C)C1=O (stereo not drawn)
4. CN1CCC2(CC1)C(C#N)C(=O)NC(=O)C2C#N (stereo not drawn)
5. C[C@]12CCc3sc(Nc4ccc(F)cc4)nc3C1=CC[C@@H]1[C@@H]2CC[C@]2(C)C(=O)CC[C@@H]12

Result:
[105, 115, 62.7, 108, 35.4]

Below are some molecules; for each one, tell me its growth.
1. CCC(Br)(CC)C(=O)NC(N)=O
2. N#CCC(=O)c1ccccc1
3. O=c1[nH]c(=O)[nH]c(=O)[nH]1
4. CCC1(CCSC#N)C(=O)NC(=O)NC1=O
5. C[C@]12CCC3[C@@H](C[C@@H]4SC(Nc5ccccc5)=N[C@@]45CC(=O)CC[C@]35C)[C@@H]1CCC2=O (stereo partly drawn)
6. Cc1nnc([S-])o1.[Au+].c1ccc([PH+](c2ccccc2)c2ccccc2)cc1

Result:
110
97.6
108
106
-17.9
-11.8

====

- System: CCRF-CEM leukemia
- procedure-text: NCI-60 one-dose screen, 48 h
- assay-context: 10 µM unless noted
Compounds without any hit were thinned out: in the full panel of roughly 83,000, 20% have a hit. Calls of active or inactive are those of the source. How the source made its calls: active means growth percent below 10; inactive means the rest.
// classify into 1 (yes) for active, 0 (no) for inactive

Please review the following examples before continuing.
CO[C@@H]([CH2][Hg][O]C(=O)c1ccccc1)[C@@H]([CH2][Hg][O]C(=O)c1ccccc1)OC: 1 (yes)
CC(=O)Nc1nc2c(s1)C1=CC[C@H]3[C@@H]4CC[C@H](OC(C)=O)[C@@]4(C)CC[C@@H]3[C@@]1(C)CC2: 0 (no)

Request: // return assay outcome for `CC[C@H](C)[C@H](NC(=O)[C@H]1CCCCN1C)C(=O)N(C)[C@H](C[C@@H](OC(C)=O)c1nc(C(=O)N[C@@H](Cc2ccccc2)C[C@H](C)C(=O)O)cs1)C(C)C`
Result: 1 (yes)

Request: // return assay outcome for `CC/C(=C(\c1ccc(OCCN2CCOCC2)cc1)c1ccc(OC(=O)Cc2ccccc2)cc1)c1ccc(Cl)cc1`
Result: 0 (no)

Request: // return assay outcome for `NC(N)=NC(N)=Nc1ccc(Cl)cc1`
Result: 0 (no)

Request: // return assay outcome for `CC[C@H](C)[C@H](NC(=O)c1ncccn1)C(=O)N(C)[C@H](C[C@@H](OC(C)=O)c1nc(C(=O)N[C@@H](Cc2ccccc2)C[C@H](C)C(=O)OC)cs1)C(C)C`
Result: 0 (no)

Request: // return assay outcome for `COc1ccc(N)cc1OC`
Result: 0 (no)

Request: // return assay outcome for `COc1ccc2c(c1)c(-c1nc(-c3cn(C)c4ncccc34)cs1)cn2CCCCN1CCOCC1`
Result: 1 (yes)

Request: // return assay outcome for `COC(=O)C1=CO[C@@H](C)[C@@H]2CN3CCc4c([nH]c5cc(OC)ccc45)[C@@H]3C[C@H]12`
Result: 0 (no)

Request: // return assay outcome for `C[C@]12CC[C@H]3[C@@H](C[C@@H]4SC(Nc5ccccc5)=N[C@@]45C/C(=N/O)CC[C@]35C)[C@@H]1CCC2=O`
Result: 1 (yes)

Request: // return assay outcome for `Cc1cc2c(cc1-c1ccnc(/C=C/C(=O)O)c1)C(C)(C)CCC2(C)C`
Result: 0 (no)

Request: // return assay outcome for COC1C(O)CC(OC2CC(Oc3cc4cc5c(c(O)c4c(O)c3C)C(=O)[C@@H](OC3CC(OC4CC(OC6CC(C)(O)C(OC(C)=O)C(C)O6)C(O)C(C)O4)C(O)C(C)O3)[C@H]([C@H](OC)C(=O)[C@@H](O)[C@@H](C)O)C5)OC(C)C2OC(C)=O)OC1C (some centres undefined)
Result: 1 (yes)

Request: // return assay outcome for CC1(C)N(Nc2ccccc2)C(=O)C2CCCN21 (centres undefined)
Result: 0 (no)

Request: // return assay outcome for `CCN(CC)CCn1c(=O)n(C)c2ccccc21`
Result: 0 (no)

Request: // return assay outcome for `COC(=O)[C@@H](C)C[C@H](Cc1ccccc1)NC(=O)c1cccc([C@@H](C[C@H](C(C)C)N(C)C(=O)[C@@H](NC(=O)[C@H]2CCCCN2C)C2CC2)OC(C)=O)n1`
Result: 0 (no)

Request: // return assay outcome for CCCCCCCCCCCCCCCCCC1OCC(COC(=O)O[C@@H](C(=O)O[C@H]2C[C@@]3(O)[C@@H](OC(=O)c4ccccc4)[C@@H]4[C@]5(OC(C)=O)CO[C@@H]5C[C@H](O)[C@@]4(C)C(=O)[C@H](OC(C)=O)C(=C2C)C3(C)C)[C@@H](NC(=O)c2ccccc2)c2ccccc2)O1 (some centres undefined)
Result: 0 (no)

Request: // return assay outcome for `COc1cc(C=C2C(=O)NC(=O)NC2=O)ccc1O`
Result: 0 (no)

Request: // return assay outcome for `O=C/C=C/c1ccco1`
Result: 0 (no)

Request: // return assay outcome for CC[C@H](C)[C@H](NC(=O)CN(C)C)C(=O)N(C)[C@H](C[C@@H](OC(C)=O)c1nc(C(=O)NC23C4C5C2C2C3C4C52C(=O)OC)cs1)C(C)C (some centres undefined)
Result: 1 (yes)

Request: // return assay outcome for CC12CCC3C(CCC4CC(O)CCC43C)C1CCC2=O (centres undefined)
Result: 0 (no)

Request: // return assay outcome for COC12CC3(C)C(C4=CC(=O)OC4)CCC3(O)C3CCC4=CC(=O)CCC4(CO1)C32 (centres undefined)
Result: 0 (no)
